The entries below are paired with their reported pest or weed control at 1000 g/ha.
system: Amaranthus retroflexus (AMARE); test: Post-emergence glasshouse test, visual injury, AMARE; type: in vivo; conditions: 336 h, Table 3, post-emergence, 1000 g/ha, 14±1 days post application
Write it as a number; the unit % goes unstated.

COMPOUND: COc1cc(CNc2ncc(-c3cc(C)no3)c(C(C)C)n2)cc(OC)c1
ASSAYED_TARGET: Amaranthus retroflexus (AMARE)
pest or weed control at 1000 g/ha, %: 60

Request: Fill blank: measured pest or weed control at 1000 g/ha of the compound `Cc1cc(-c2cnc(N3CCC(C(N)=O)CC3)nc2-c2ccc(C)o2)on1` is ____.
Result: 70

Request: // same read-out, input: `Cc1cc(-c2cnc(NCc3cccc(F)c3)nc2C(C)C)on1`
Result: 100

Request: Now give it for `Cc1cc(-c2cnc(NCc3ccncc3)nc2C(C)C)on1` too.
Result: 90

Request: Same question for Cc1cc(-c2cnc(NCC3CCCO3)nc2-c2ccc(C)o2)on1 (centres unmarked) please.
Result: 0
